System: SNB-75 CNS
Experiment: NCI tumour cell line growth inhibition, 48 h; in the data active means GI50 below about 0.43 µM; inactive means the rest
Tick one outcome: class 1 (active), class 0 (inactive)

Query :: For this molecule, state the assay outcome: `CN(C)c1ccc2[nH]c(O)c(C=Nc3ccc(S(N)(=O)=O)cc3)c2c1`
Result :: class 0

Query :: For this molecule, state the assay outcome: `Cc1cccc(Oc2ccc(Nc3ncnc4ccc(NC(=O)CN5CCN(C)CC5)cc34)cc2Cl)c1`
Result :: class 0

Query :: For this molecule, state the assay outcome: `N#Cc1c(SCc2ccccc2)nc2[nH]c(=S)[nH]c(=S)c2c1-c1ccco1`
Result :: class 0

Query :: For this molecule, state the assay outcome: `CN1CCN(Cc2ccc(NC(=O)c3[nH]ncc3Nc3ccnc4ccsc34)cc2)CC1`
Result :: class 1

Query :: For this molecule, state the assay outcome: `CCC(=O)Nc1ccc2c(c1)CN1C(=O)c3ccccc3C1=N2`
Result :: class 0

Query :: For this molecule, state the assay outcome: `CC1(C)OC(=O)C=C(O)O1.CC1(C)OC(=O)C=C(O)O1.CCO.Oc1ccc2c(c1)CCC2.[Ti]`
Result :: class 0

Query :: For this molecule, state the assay outcome: `C=C1C(=O)O[C@H]2[C@H]1CC/C(COC(=O)N[C@@H](Cc1c[nH]c3ccccc13)C(=O)OC)=C\CC[C@@]1(C)O[C@@H]21`
Result :: class 0

Query :: For this molecule, state the assay outcome: `CCC[CH2][Sn]([CH2]CCC)([O]C(=O)c1cccc(F)c1F)[O][Sn]([CH2]CCC)([CH2]CCC)[O]C(=O)c1cccc(F)c1F`
Result :: class 1

Query :: For this molecule, state the assay outcome: `Fc1ccc(Nc2ccc3cc(OCCCN4CCOCC4)ccc3n2)cc1F`
Result :: class 0

Query :: For this molecule, state the assay outcome: `COc1cc(-c2ccc(-[n+]3nc(-c4ccc([N+](=O)[O-])cc4)nn3-c3ccc([N+](=O)[O-])cc3)c(OC)c2)ccc1-[n+]1nc(-c2ccc([N+](=O)[O-])cc2)nn1-c1ccc([N+](=O)[O-])cc1`
Result :: class 0

Query :: For this molecule, state the assay outcome: `Cc1cc2c(cc1C)[n+](=O)c(C(=O)c1cccs1)c(C(F)(F)F)n2[O-]`
Result :: class 0

Query :: For this molecule, state the assay outcome: `COc1ccc2c(c1)/C(=C/c1c(-c3ccc(C)cc3)nc3sc(C)cn13)C(=O)N2`
Result :: class 0

* * *

Test system: CAKI-1 renal
Assay: NCI tumour cell line growth inhibition, 48 h; in the data active means GI50 below about 0.43 µM; inactive means the rest
*1 amine or outer side, *2 acyl side, *3 side chain or, on linkers, in order; H or OH if unused. Where a SMILES comes first, the peptide text is derived from it. CO = O=C([*:1])[*:2]
Tick one outcome: 1 (yes) = active, 0 (no) = inactive

Query :: For this compound, state the assay outcome: `CN1CCN(CCCOc2ccc3ncnc(Nc4ccc(Oc5cccc(C(F)(F)F)c5)c(Cl)c4)c3c2)CC1`
Result :: 0 (no)

Query :: For this compound, state the assay outcome: `COc1cc(-c2ccc(-[n+]3nc(-c4ccc([N+](=O)[O-])cc4)nn3-c3ccc([N+](=O)[O-])cc3)c(OC)c2)ccc1-[n+]1nc(-c2ccc([N+](=O)[O-])cc2)nn1-c1ccc([N+](=O)[O-])cc1`
Result :: 0 (no)

Query :: For this compound, state the assay outcome: `CC1(C)OC(=O)C=C(O)O1.CC1(C)OC(=O)C=C(O)O1.CCO.Oc1ccc2c(c1)CCC2.[Ti]`
Result :: 0 (no)

Query :: For this compound, state the assay outcome: `C=C1C(=O)O[C@H]2[C@H]1CC/C(Cn1cc(Cn3ccc4cc(Cl)ccc43)nn1)=C\CC[C@@]1(C)O[C@@H]21`
Result :: 0 (no)

Query :: For this compound, state the assay outcome: CCN(CC)CCCC(C)N/C(c1cccc(OC)c1)=c1\c(=O)[nH]n(-c2c3ccccc3nc3ccccc23)c(=O)\c1=C(/NC(C)CCCN(CC)CC)c1cccc(OC)c1 (configuration not stated)
Result :: 0 (no)

Query :: For this compound, state the assay outcome: `O=C(CSc1nc2sc3c(c2c(=O)n1-c1ccccc1)CCCCC3)N/N=C/c1ccc(F)cc1`
Result :: 0 (no)

Query :: For this compound, state the assay outcome: CC(C)C(NC(=O)C(CCCN=C(N)N)NC(=O)NC(Cc1ccccc1)C(=O)O)C(=O)NC(C=O)CCCN=C(N)N (stereo not drawn) ({Phe-CO}-Arg-Val-Arg-aldehyde; configuration not given here)
Result :: 0 (no)

Query :: For this compound, state the assay outcome: `CCSc1nc(=S)[nH]c2[nH]ncc12`
Result :: 0 (no)

Query :: For this compound, state the assay outcome: `CCC[CH2][Sn]([CH2]CCC)([O]C(=O)c1cccc(F)c1F)[O][Sn]([CH2]CCC)([CH2]CCC)[O]C(=O)c1cccc(F)c1F`
Result :: 1 (yes)

Query :: For this compound, state the assay outcome: `O=S(=O)(NCCNc1cc(-c2cn(-c3ccccc3)nc2-c2cccc(O)c2)ccn1)c1ccc(F)cc1`
Result :: 0 (no)

Query :: For this compound, state the assay outcome: `COc1ccc2c(c1)C(=O)c1c-2c(N2CCN(C(=O)CN(C)C)CC2)nc2ccccc12`
Result :: 0 (no)

Query :: For this compound, state the assay outcome: `COc1ccc2c(c1)/C(=C/c1c(-c3ccc(C)cc3)nc3sc(C)cn13)C(=O)N2`
Result :: 0 (no)

* * *

I'd appreciate it if you could supply GI50 values for the items below.
Tested on: MOLT-4 leukemia
Experiment: NCI tumour cell line growth inhibition, 48 h

Query :: Provide value of GI50 for this record tested with MOLT-4 leukemia: `COc1cc(/C=C2\C[C@H]3[C@@H]4CC=C5C[C@@H](OC(C)=O)CC[C@]5(C)[C@H]4CC[C@]3(C)[C@H]2OC(C)=O)ccc1OCCCn1ccnc1`
Result :: 17.1 µM

Query :: Provide value of GI50 for this record tested with MOLT-4 leukemia: `C[C@]12CC[C@H]3[C@@H](CC=C4C[C@@H](O)CC[C@@]43C)[C@@H]1C/C(=C\c1cccc(OCCCn3ccnc3)c1)[C@@H]2O`
Result :: 6.55 µM

Query :: Provide value of GI50 for this record tested with MOLT-4 leukemia: `Fc1ccc(Nc2ccc3cc(OCCCN4CCOCC4)ccc3n2)cc1F`
Result :: 3.45 µM

Query :: Provide value of GI50 for this record tested with MOLT-4 leukemia: `Cn1c(Cc2ccccc2)nc2cc3ccccc3cc21`
Result :: 32.6 µM

* * *

Tested on: HL-60(TB) leukemia
Assay: NCI tumour cell line growth inhibition, 48 h
ENDPOINT_LABEL: TGI (µM)
Output spec: scalar in µM, unitless text.

Query :: I'd like to know its TGI. The compound in question is `COc1ccc(/C(Cl)=C(\C=O)c2cc(OC)c(OC)c(OC)c2)cc1OC`
Result :: 58.6

Query :: I'd like to know its TGI. The compound in question is `Cc1cc(Nc2nc(N3CCOCC3)nc3ccccc23)n[nH]1`
Result :: 50.1

Query :: I'd like to know its TGI. The compound in question is CC(=O)O[C@H]1C(=O)[C@@]2(C)[C@H]([C@H](OC(=O)c3ccccc3)[C@]3(O)C[C@H](OC(=O)[C@H](OC(=O)CCC(=O)OC4CCC(S/N=C(N)/N=C(\N)N(C)C)CC4)[C@@H](NC(=O)c4ccccc4)c4ccccc4)C(C)=C1C3(C)C)[C@]1(OC(C)=O)CO[C@@H]1C[C@@H]2O (some centres undefined)
Result :: 0.0234

Query :: I'd like to know its TGI. The compound in question is `C[C@@H](Oc1cc(-c2cnn(C3CC4(CCNCC4)C3)c2)cnc1N)c1c(F)ccc(Cl)c1Cl`
Result :: 3.36

Query :: I'd like to know its TGI. The compound in question is `O=c1[nH]cnc2c1nnn2[C@@H]1O[C@H](CO)[C@@H](O)[C@H]1O`
Result :: 39.5

* * *

Test system: HOP-92 NSCLC
Assay: NCI tumour cell line growth inhibition, 48 h
ENDPOINT_LABEL: GI50

Query :: I'd like to know its GI50. The compound in question is `CCCN1C(=O)/C(=C/c2ccc(O)cc2)SC1=Nc1ccccc1`
Result :: 20300 nM

Query :: I'd like to know its GI50. The compound in question is `O=C(Nc1cccc(-c2nc3ccccc3[nH]2)c1)c1cccc(NC(=O)c2ccco2)c1`
Result :: 2630 nM

Query :: I'd like to know its GI50. The compound in question is `O=[N+]([O-])c1ccccc1/C=C/C=C1c2ccccc2-c2ccccc21`
Result :: > 100000 nM

Query :: I'd like to know its GI50. The compound in question is `N#C/C(=C\c1ccc(Cl)cc1)n1nnc2cc(F)c(F)cc21`
Result :: 1070 nM

Query :: I'd like to know its GI50. The compound in question is `O=c1[nH]cnc2c1nnn2[C@@H]1O[C@H](CO)[C@@H](O)[C@H]1O`
Result :: 2330 nM

Query :: I'd like to know its GI50. The compound in question is `CN1CCN(Cc2ccc(NC(=O)c3[nH]ncc3Nc3ccnc4ccsc34)cc2)CC1`
Result :: 3890 nM

Query :: I'd like to know its GI50. The compound in question is `CN(C)c1ccc2[nH]c(O)c(C=Nc3ccc(S(N)(=O)=O)cc3)c2c1`
Result :: > 25000 nM

Query :: I'd like to know its GI50. The compound in question is `C/C(=C\c1ccn(-c2ccc(N)cc2C(F)(F)F)n1)[C@@H]1C[C@@H]2O[C@]2(C)CCC[C@H](C)[C@H](O)[C@@H](C)C(=O)C(C)(C)[C@@H](O)CC(=O)O1`
Result :: 1270 nM
